From: ChEMBL document CHEMBL3045963

# System: Spodoptera litura
# Assay Overview: Insecticidal activity against third-instar larval stage of Spodoptera litura assessed as mortality at 0.1% applied topically on the ventral side of the larvae measured after 24 hr by contact method
# Format: functional
Measure: mortality (%)
Please reply with the bare figure in % and do not write the unit itself.

Solved entries:
CCn1cc(C(=O)N/N=C/c2cccc3ccccc23)c(=O)c2ccc(C)nc21; 10
CCn1cc(C(=O)N/N=C/c2c3ccccc3cc3ccccc23)c(=O)c2ccc(C)nc21; 10
CCn1cc(C(=O)NN=C2C3CC4CC(C3)CC2C4)c(=O)c2ccc(C)nc21; 10
CCn1cc(C(=O)N/N=C/c2ccccc2[N+](=O)[O-])c(=O)c2ccc(C)nc21; 30
CCn1cc(C(=O)N/N=C/c2ccc([N+](=O)[O-])cc2)c(=O)c2ccc(C)nc21; 10

Proceeding to the next compound to report its mortality.
Give mortality (Spodoptera litura) of the following compound: "CCn1cc(C(=O)N/N=C/c2ccccc2Cl)c(=O)c2ccc(C)nc21"
10

----------
# Test system: Tribolium castaneum
# Assay Overview: Insecticidal activity against adult Tribolium castaneum (red flour beetle) in compound pre-treated green gram grains assessed as mortality at 20 mg/kg after 48 hr by feeding based residue method
# Assay type: functional
# Condition Set: in Vigna radiata
Measure: mortality at 20 mg/kg (%)
Please reply with the bare figure in % and do not write the unit itself.

CCn1cc(C(=O)NN=C2C3CC4CC(C3)CC2C4)c(=O)c2ccc(C)nc21; 10

Recorded mortality at 20 mg/kg for "CCn1cc(C(=O)N/N=C/c2ccccc2[N+](=O)[O-])c(=O)c2ccc(C)nc21" , please?
20

Quick one: "CCn1cc(C(=O)N/N=C/c2ccccc2F)c(=O)c2ccc(C)nc21"
10

Quick one: "CCn1cc(C(=O)NN=C2CCCCC2)c(=O)c2ccc(C)nc21"
15

Quick one: "CCn1cc(C(=O)N/N=C/c2ccc3ccccc3c2)c(=O)c2ccc(C)nc21"
10

----------
# Test system: Spodoptera litura
# Assay Overview: Insecticidal activity against third-instar larval stage of prestarved Spodoptera litura in castor leaf assessed as mortality at 0.1% treated for 2 secs before larval infestation measured after 24 hr by feeding method
# Assay type: functional
Measure: mortality (%)
Please reply with the bare figure in % and do not write the unit itself.

CCn1cc(C(=O)N/N=C/c2ccc(O)c(OC)c2)c(=O)c2ccc(C)nc21; 100
CCn1cc(C(=O)N/N=C/c2c(Cl)cccc2Cl)c(=O)c2ccc(C)nc21; 100
CCn1cc(C(=O)N/N=C/c2ccc3ccccc3c2)c(=O)c2ccc(C)nc21; 70
CCn1cc(C(=O)N/N=C/c2ccc(OC)cc2)c(=O)c2ccc(C)nc21; 70

Recorded mortality for "CCn1cc(C(=O)NN=C2C3CC4CC(C3)CC2C4)c(=O)c2ccc(C)nc21" , please?
50

Quick one: "CCn1cc(C(=O)N/N=C/c2ccc(F)cc2)c(=O)c2ccc(C)nc21"
50

----------
# Tested on: Tribolium castaneum
# Assay Overview: Insecticidal activity against adult Tribolium castaneum (red flour beetle) in compound pre-treated green gram grains assessed as mortality at 20 mg/kg after 48 hr by feeding based residue method
# Assay type: functional
# Condition Set: in Vigna radiata
Overview of reported mortality at 20 mg/kg across a group of compounds:
Please reply with the bare figure in % and do not write the unit itself.

CCn1cc(C(=O)N/N=C/c2c3ccccc3cc3ccccc23)c(=O)c2ccc(C)nc21; 15
CCOC(=O)CC(SP(=S)(OC)OC)C(=O)OCC (centres undefined) [MALATHION]; 100
CCn1cc(C(=O)N/N=C/c2ccccc2Cl)c(=O)c2ccc(C)nc21; 10

Proceeding to the next compound to report its mortality at 20 mg/kg.
Recorded mortality at 20 mg/kg for "CCn1cc(C(=O)N/N=C/c2ccc(OC)cc2)c(=O)c2ccc(C)nc21" , please?
30
